Target: T1, human CX3CR1 (human, UniProt P49238 1-355)
T1 construct: overexpressed on CHO, BA/F3 or HEK293T cells; also called huCX3CR1; hCX3CR1
T1 sequence: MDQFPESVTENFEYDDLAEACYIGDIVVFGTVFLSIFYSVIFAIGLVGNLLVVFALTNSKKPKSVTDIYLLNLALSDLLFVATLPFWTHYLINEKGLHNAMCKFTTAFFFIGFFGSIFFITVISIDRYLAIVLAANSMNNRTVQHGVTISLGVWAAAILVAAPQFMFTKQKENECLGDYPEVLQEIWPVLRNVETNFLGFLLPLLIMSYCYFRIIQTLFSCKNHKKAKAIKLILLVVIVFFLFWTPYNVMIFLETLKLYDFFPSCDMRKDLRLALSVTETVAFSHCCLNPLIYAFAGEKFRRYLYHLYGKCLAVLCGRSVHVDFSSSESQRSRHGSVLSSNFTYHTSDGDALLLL
Test: A647-fractalkine competition FACS, HEK293-huCX3CR1
endpoint-name: % block
Report the figure along with its unit, number first.

binder | result
CX3CR1BII019 (VHH, expressed in E. coli as described for the monovalent VHHs) EMQLVESGGGSVQAGESLRLSCAASGSIFSSNAMAWYRQAPGKQRDLVALINSVGITKYADSVKGRFTISRDNAKNTVYLQMNSLKPEDTAVYYCTSDGRRGWDTRYWGQGTQVTVSSGGGGSGGGGSGGGGSGGGGSGGGGSGGGGSGGGGSEMQLVESGGGSVQAGESLRLSCAASGSIFSSNAMAWYRQAPGKQRDLVALINSVGITKYADSVKGRFTISRDNAKNTVYLQMNSLKPEDTAVYYCTSDGRRGWDTRYWGQGTQVTVSS | 100%

Indicate the recorded % block value for this binder: CX3CR1BII018 (VHH, A647 label where used as labeled competitor (Example 14), expressed in E. coli as described for the monovalent VHHs; also called A647-018; A647 labeled CX3CR1BII018) EVQLVESGGGSVQAGESLRLSCAASGSIFSSNAMAWYRQAPGKRRDLVAAINSVGVTKYADSVKGRFTISRDNAKNTVYLQMNSLKPEDTAVYYCTSDPRRGWDTRYWGQGTQVTVSSGGGGSGGGGSGGGGSGGGGSGGGGSGGGGSGGGGSEVQLVESGGGSVQAGESLRLSCAASGSIFSSNAMAWYRQAPGKRRDLVAAINSVGVTKYADSVKGRFTISRDNAKNTVYLQMNSLKPEDTAVYYCTSDPRRGWDTRYWGQGTQVTVSS
102%
